Papp at 2 h overview
Assay Info: Permeability test (Papp) across hiPSC-derived enterocyte-like cell monolayer
Assay type: in vitro ADME
Protocol Conditions: human, day 23 of differentiation, M3-2 medium, 37°C 2 h, n = 4; read-out: RPChiPS771 d23 Papp Mean ± SD

>  <Compound>
NC(N)=Nc1nc(CSCCC(N)=NS(N)(=O)=O)cs1

>  <Papp at 2 h / ×10⁻⁶ cm/s>
5.05

$$$$
>  <Compound>
COCCc1ccc(OCC(O)CNC(C)C)cc1 (centres unmarked)

>  <Papp at 2 h / ×10⁻⁶ cm/s>
22.6

$$$$
>  <Compound>
C[C@H]1O[C@@H](O[C@H]2[C@@H](O)C[C@H](O[C@H]3[C@@H](O)C[C@H](O[C@H]4CC[C@@]5(C)[C@H](CC[C@@H]6[C@@H]5C[C@@H](O)[C@]5(C)[C@@H](C7=CC(=O)OC7)CC[C@]65O)C4)O[C@@H]3C)O[C@@H]2C)C[C@H](O)[C@@H]1O

>  <Papp at 2 h / ×10⁻⁶ cm/s>
6.15

$$$$
>  <Compound>
Cc1cc(=O)n(-c2ccccc2)n1C [antipyrine]

>  <Papp at 2 h / ×10⁻⁶ cm/s>
48.4

$$$$
>  <Compound>
CCN1CCCC1CNC(=O)c1cc(S(N)(=O)=O)ccc1OC (centres unmarked) [sulpiride]

>  <Papp at 2 h / ×10⁻⁶ cm/s>
3.15

$$$$
>  <Compound>
CC(C)(C)NCC(O)COc1cccc2c1CC(O)C(O)C2 (centres unmarked)

>  <Papp at 2 h / ×10⁻⁶ cm/s>
2.83

$$$$
>  <Compound>
CC(C)NCC(O)COc1cccc2ccccc12 (centres unmarked)

>  <Papp at 2 h / ×10⁻⁶ cm/s>
26

$$$$
>  <Compound>
NS(=O)(=O)c1cc2c(cc1Cl)NCNS2(=O)=O [hydrochlorothiazide]

>  <Papp at 2 h / ×10⁻⁶ cm/s>
2.1

$$$$

meta.source: paper PMC7878837
